Biological target: human ether-à-go-go-related gene (hERG) potassium channel (human, UniProt Q12809)
Sequence (Q12809 whole entry, looked up): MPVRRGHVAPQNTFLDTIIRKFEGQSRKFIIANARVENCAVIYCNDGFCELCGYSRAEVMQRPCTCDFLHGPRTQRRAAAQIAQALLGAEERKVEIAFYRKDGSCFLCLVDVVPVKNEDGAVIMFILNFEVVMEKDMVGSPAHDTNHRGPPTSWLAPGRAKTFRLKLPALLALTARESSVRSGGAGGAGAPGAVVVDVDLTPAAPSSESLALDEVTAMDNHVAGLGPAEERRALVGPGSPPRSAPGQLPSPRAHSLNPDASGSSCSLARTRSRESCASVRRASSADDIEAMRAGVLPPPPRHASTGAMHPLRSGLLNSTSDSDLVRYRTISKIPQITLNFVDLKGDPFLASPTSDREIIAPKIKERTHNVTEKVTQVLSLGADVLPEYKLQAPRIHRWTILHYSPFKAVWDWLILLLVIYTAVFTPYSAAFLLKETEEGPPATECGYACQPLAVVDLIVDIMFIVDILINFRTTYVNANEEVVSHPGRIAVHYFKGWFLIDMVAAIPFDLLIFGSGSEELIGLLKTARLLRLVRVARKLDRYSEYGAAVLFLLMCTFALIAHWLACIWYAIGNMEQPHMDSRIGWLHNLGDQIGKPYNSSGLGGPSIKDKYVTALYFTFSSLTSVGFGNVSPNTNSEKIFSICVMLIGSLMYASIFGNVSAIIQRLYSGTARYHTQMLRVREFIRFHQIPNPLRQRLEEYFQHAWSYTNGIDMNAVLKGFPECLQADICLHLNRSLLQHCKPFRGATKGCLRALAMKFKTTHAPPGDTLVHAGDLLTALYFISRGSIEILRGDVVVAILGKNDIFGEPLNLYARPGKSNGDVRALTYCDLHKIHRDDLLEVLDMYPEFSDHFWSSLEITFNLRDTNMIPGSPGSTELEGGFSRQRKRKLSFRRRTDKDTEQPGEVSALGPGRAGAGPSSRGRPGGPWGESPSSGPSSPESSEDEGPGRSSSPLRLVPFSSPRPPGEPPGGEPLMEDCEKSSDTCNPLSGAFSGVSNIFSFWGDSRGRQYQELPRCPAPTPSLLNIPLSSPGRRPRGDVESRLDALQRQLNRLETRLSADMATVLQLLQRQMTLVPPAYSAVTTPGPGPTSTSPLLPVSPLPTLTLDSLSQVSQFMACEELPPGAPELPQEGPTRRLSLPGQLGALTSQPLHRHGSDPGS
Assay: primary screen, population patch clamp on CHO cells stably expressing hERG; higher = less effect of the substance
The campaign covered roughly 310,000 compounds. About 14,000 (4.5%) showed an effect of 50% or more. The effect is printed as a negative number. Only a selection was taken, and strong results are over-represented in it overall.
measured-quantity: hERG current change (%, negative = inhibition) at 10uM (%)
API: value field is a number in %; no unit string.

Exercise: Find hERG current change (%, negative = inhibition) at 10uM (human ether-à-go-go-related gene (hERG) potassium channel (human, UniProt Q12809)) for the entry `CC(C)Cc1nc(N2CCN(C(=O)C(C)C)CC2)c(C#N)c2c1CCC2`
Key: -27.2

Exercise: Form entry - test system: human ether-à-go-go-related gene (hERG) potassium channel (human, UniProt Q12809); read-out: hERG current change (%, negative = inhibition) at 10uM; compound: `O=C(CN1CCN(c2ccc(F)cc2)CC1)Nc1ccc(F)c(F)c1`
Key: -27.8

Exercise: Please state recorded hERG current change (%, negative = inhibition) at 10uM (tested on human ether-à-go-go-related gene (hERG) potassium channel (human, UniProt Q12809)) of `CCc1ccc2[nH]c(=O)c(CN(CCN3CCCC3)C(=O)NC3CCCCC3)cc2c1`
Key: -40.9

Exercise: Form field - read-out: hERG current change (%, negative = inhibition) at 10uM; system: human ether-à-go-go-related gene (hERG) potassium channel (human, UniProt Q12809); submitted item: `CC(=O)N(Cc1cc2c(C)cc(C)cc2[nH]c1=O)C1CCCCC1`
Key: 8.13

Exercise: // map CC(=O)c1cccc(NC(=O)COc2cc3oc(=O)c(CC(C)O)c(C)c3cc2Cl)c1 (centres unmarked) to recorded hERG current change (%, negative = inhibition) at 10uM (system: human ether-à-go-go-related gene (hERG) potassium channel (human, UniProt Q12809))
Key: -57.7

Exercise: // fetch human ether-à-go-go-related gene (hERG) potassium channel (human, UniProt Q12809) hERG current change (%, negative = inhibition) at 10uM for `CCN1CCN(Cc2ccc(NC(=O)Nc3ccc(OC)cc3)cc2)CC1`
Key: -7.9

Exercise: Which measured hERG current change (%, negative = inhibition) at 10uM belongs to `O=C(Nc1nnc(Cc2ccc(Cl)cc2)s1)c1cccnc1` , tested on human ether-à-go-go-related gene (hERG) potassium channel (human, UniProt Q12809)?
Key: 13.9

Exercise: Find the measured hERG current change (%, negative = inhibition) at 10uM: item `C[C@H](NC(=O)C1CCN(S(=O)(=O)c2ccccc2)CC1)C(=O)NCc1cccc(C(F)(F)F)c1` , target or system human ether-à-go-go-related gene (hERG) potassium channel (human, UniProt Q12809).
Key: -2.33

Exercise: Recall the recorded hERG current change (%, negative = inhibition) at 10uM for `Cc1ccccc1C(=O)N=c1sccn1C` with human ether-à-go-go-related gene (hERG) potassium channel (human, UniProt Q12809) and state it.
Key: 24.7

Exercise: Notebook: pull reported hERG current change (%, negative = inhibition) at 10uM for human ether-à-go-go-related gene (hERG) potassium channel (human, UniProt Q12809), entry `CCCC(=O)N1CCN(c2nc(CC(C)C)c3c(c2C#N)CCC3)CC1`
Key: -53

Exercise: Record `COc1ccc(OCC(=O)NCCCCCCNC(=O)COc2ccc(OC)cc2)cc1` : what is its hERG current change (%, negative = inhibition) at 10uM with human ether-à-go-go-related gene (hERG) potassium channel (human, UniProt Q12809)?
Key: 10.6

Exercise: For human ether-à-go-go-related gene (hERG) potassium channel (human, UniProt Q12809), provide hERG current change (%, negative = inhibition) at 10uM of CCN1CCCC1CN(Cc1cc2c(C)cc(C)cc2[nH]c1=O)C(=O)NC1CCCCC1 (centres unmarked) please.
Key: -76

Exercise: I'm curious: which hERG current change (%, negative = inhibition) at 10uM was measured for `COc1ccc(CN(Cc2cc3cc(OC)c(OC)cc3[nH]c2=O)C(=O)NC2CCCCC2)cc1` tested on human ether-à-go-go-related gene (hERG) potassium channel (human, UniProt Q12809)?
Key: 7.13

Exercise: Provide value of hERG current change (%, negative = inhibition) at 10uM for this record tested with human ether-à-go-go-related gene (hERG) potassium channel (human, UniProt Q12809): CC(=O)Nc1ccc(CN2CCCC(CO)(Cc3cccc(Cl)c3)C2)cc1 (centres unmarked)
Key: -39.2

Exercise: Notebook: pull reported hERG current change (%, negative = inhibition) at 10uM for human ether-à-go-go-related gene (hERG) potassium channel (human, UniProt Q12809), entry `COc1ccc(NS(=O)(=O)c2cnc[nH]2)cc1`
Key: 17.4

Exercise: Observed hERG current change (%, negative = inhibition) at 10uM on human ether-à-go-go-related gene (hERG) potassium channel (human, UniProt Q12809) for `CCOc1ccc(NC(=O)CCSc2ccc(C)cc2)cc1` , please.
Key: 8.63

Exercise: What reported hERG current change (%, negative = inhibition) at 10uM corresponds to `O=C(CN1CCN(c2ccc(Cl)cc2)CC1)Nc1ccc(F)cc1` on human ether-à-go-go-related gene (hERG) potassium channel (human, UniProt Q12809)?
Key: -60.9

Exercise: Request: hERG current change (%, negative = inhibition) at 10uM, test system human ether-à-go-go-related gene (hERG) potassium channel (human, UniProt Q12809), entry `CCCCN(CC(=O)NC(C)(C)C)C(=O)C(=O)Nc1ccc2c(c1)OCCO2`
Key: -0.704

Exercise: # returns recorded hERG current change (%, negative = inhibition) at 10uM (system: human ether-à-go-go-related gene (hERG) potassium channel (human, UniProt Q12809)) for `c1nc(N2CCCC2)c2[nH]cnc2n1`
Key: -3.15

Exercise: // map `Cc1ccc2[nH]c(=O)c(CN(CCCN3CCOCC3)C(=O)NC3CCCCC3)cc2c1` to recorded hERG current change (%, negative = inhibition) at 10uM (system: human ether-à-go-go-related gene (hERG) potassium channel (human, UniProt Q12809))
Key: -25.7

Exercise: Checklist item: hERG current change (%, negative = inhibition) at 10uM tested on human ether-à-go-go-related gene (hERG) potassium channel (human, UniProt Q12809), entry `O=C(OCC(=O)c1cccs1)C1=COCCO1` , value?
Key: 19.7

Exercise: Please state recorded hERG current change (%, negative = inhibition) at 10uM (tested on human ether-à-go-go-related gene (hERG) potassium channel (human, UniProt Q12809)) of `CCOC(=O)COc1ccc(C(=O)Nc2cccc(Cl)c2C)cc1`
Key: 18.9

Exercise: Field: hERG current change (%, negative = inhibition) at 10uM (human ether-à-go-go-related gene (hERG) potassium channel (human, UniProt Q12809)). Entry: `COCCCn1c(=O)c2sccc2n2c(CCCC(=O)NCc3ccccc3OC)nnc12`
Key: -19.9

Exercise: Recall the recorded hERG current change (%, negative = inhibition) at 10uM for `COc1ccc(Oc2nccc(OC)c2C#N)cc1` with human ether-à-go-go-related gene (hERG) potassium channel (human, UniProt Q12809) and state it.
Key: -0.188

Exercise: What measured hERG current change (%, negative = inhibition) at 10uM is associated with CC1CN(C(=O)/C(C#N)=C2\N=C(NC(=O)c3ccc(F)cc3)c3ccccc32)CC(C)O1 (centres unmarked) on human ether-à-go-go-related gene (hERG) potassium channel (human, UniProt Q12809)?
Key: 14.1

Exercise: Could you share what hERG current change (%, negative = inhibition) at 10uM was measured for CC(NC(=O)C1CCN(C(=O)[C@@H]2Cc3ccccc3CN2)CC1)c1ccccc1 (some centres unmarked) , tested on human ether-à-go-go-related gene (hERG) potassium channel (human, UniProt Q12809)?;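 note: peak tail current of the secondary pulse compared with the same well before compound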
Key: -25.7

Exercise: For the record `O=C(CCS(=O)(=O)c1ccc(Br)cc1)NC1CCCC1` , what value of hERG current change (%, negative = inhibition) at 10uM is listed for human ether-à-go-go-related gene (hERG) potassium channel (human, UniProt Q12809)?
Key: 11.6

Exercise: Give recorded hERG current change (%, negative = inhibition) at 10uM with human ether-à-go-go-related gene (hERG) potassium channel (human, UniProt Q12809) for the following compound: `COc1cccc(CC2(CO)CCN(C(=O)NCCc3ccccc3)CC2)c1`
Key: 0.136

Exercise: // fetch human ether-à-go-go-related gene (hERG) potassium channel (human, UniProt Q12809) hERG current change (%, negative = inhibition) at 10uM for `CCOC(=O)CSc1nc(N)nc(C)c1Cl`
Key: 13.4

Exercise: Field: hERG current change (%, negative = inhibition) at 10uM (human ether-à-go-go-related gene (hERG) potassium channel (human, UniProt Q12809)). Entry: `COc1cccc(CC2(CO)CCN(Cc3ccc(NC(C)=O)cc3)CC2)c1`
Key: -50.7

Exercise: Enter reported hERG current change (%, negative = inhibition) at 10uM observed with human ether-à-go-go-related gene (hERG) potassium channel (human, UniProt Q12809) for CC(C)c1ccc(NC(=O)C2CCC(CNC(=O)[C@@H]3Cc4ccccc4CN3)CC2)cc1 (some centres unmarked)
Key: 9.65

Exercise: So what hERG current change (%, negative = inhibition) at 10uM did `CCCN1Cc2cccc(C(=O)Nc3ccc(CC)cc3)c2C1=O` get with human ether-à-go-go-related gene (hERG) potassium channel (human, UniProt Q12809)?
Key: 8.1

Exercise: Quick check: hERG current change (%, negative = inhibition) at 10uM on human ether-à-go-go-related gene (hERG) potassium channel (human, UniProt Q12809), item `CCc1ccc2[nH]c(=O)c(CN(CCN(CC)CC)C(=O)NC3CCCCC3)cc2c1` ?
Key: -66.6

Exercise: Find the measured hERG current change (%, negative = inhibition) at 10uM: item `Cc1c(NC(=S)NC(=O)C(c2ccccc2)c2ccccc2)cccc1C(=O)O` , target or system human ether-à-go-go-related gene (hERG) potassium channel (human, UniProt Q12809).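 Note: peak tail current of the secondary pulse compared with the same well before compound.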
Key: -3.41

Exercise: What value of hERG current change (%, negative = inhibition) at 10uM on human ether-à-go-go-related gene (hERG) potassium channel (human, UniProt Q12809) does CCOC(=O)c1ccc(NC(=O)COc2cc3oc(=O)c(CC(C)O)c(C)c3cc2Cl)cc1 (centres unmarked) have?
Key: 13.7

Exercise: Give the reported hERG current change (%, negative = inhibition) at 10uM for `CCOC(=O)C1(Cc2ccc(OC)cc2)CCN(C(=O)c2cc(C)nn2C)CC1` (system: human ether-à-go-go-related gene (hERG) potassium channel (human, UniProt Q12809)).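 Note: peak tail current of the secondary pulse compared with the same well before compound.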
Key: -40.5

Exercise: Lab note: need hERG current change (%, negative = inhibition) at 10uM for `CCCCOc1ccccc1C(=O)NCCCCCC(=O)O` on human ether-à-go-go-related gene (hERG) potassium channel (human, UniProt Q12809), anyone have it?
Key: 10.3

Exercise: Notebook entry, human ether-à-go-go-related gene (hERG) potassium channel (human, UniProt Q12809) assay: hERG current change (%, negative = inhibition) at 10uM of `COc1ccc(CC2(CO)CCN(Cc3ccc(NC(C)=O)cc3)CC2)cc1` = ?
Key: -57.4

Exercise: # returns recorded hERG current change (%, negative = inhibition) at 10uM (system: human ether-à-go-go-related gene (hERG) potassium channel (human, UniProt Q12809)) for `COc1ccc(CCNC(=O)c2cc(=O)n(C)c(=O)n2C)cc1OC`;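 note: peak tail current of the secondary pulse compared with the same well before compound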
Key: -0.242

Exercise: For human ether-à-go-go-related gene (hERG) potassium channel (human, UniProt Q12809), provide hERG current change (%, negative = inhibition) at 10uM of CCCCCCC1C(C#N)=C(N)OC2=C1C(=O)CC(C)(C)C2 (centres unmarked) please.
Key: -0.43

Exercise: Give hERG current change (%, negative = inhibition) at 10uM (human ether-à-go-go-related gene (hERG) potassium channel (human, UniProt Q12809)) of the following compound: `CCN(CC)CCN(Cc1cc2ccc(C)cc2[nH]c1=O)C(=O)NC1CCCCC1`
Key: -73.1
